Measured values drawn from patent US9527856B2 for this set.

target: human vasopressin V1b receptor (Homo sapiens); assay: biochemical; conditions: Ki(h-V1b)* [nM], CHO-K1 cell membranes, displacement of 3H-AVP
Sequence (P47901 whole entry): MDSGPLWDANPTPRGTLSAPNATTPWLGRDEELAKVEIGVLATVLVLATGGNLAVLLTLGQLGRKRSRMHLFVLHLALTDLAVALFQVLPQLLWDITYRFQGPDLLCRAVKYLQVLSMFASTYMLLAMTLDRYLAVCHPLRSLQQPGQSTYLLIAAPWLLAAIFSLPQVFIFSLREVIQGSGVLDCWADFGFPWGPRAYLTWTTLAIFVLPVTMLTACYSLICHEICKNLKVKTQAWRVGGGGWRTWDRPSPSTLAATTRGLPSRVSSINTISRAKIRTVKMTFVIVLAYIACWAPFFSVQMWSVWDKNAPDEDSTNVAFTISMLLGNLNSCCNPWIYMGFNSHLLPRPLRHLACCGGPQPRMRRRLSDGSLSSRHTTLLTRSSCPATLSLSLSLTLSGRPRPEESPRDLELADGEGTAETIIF
experimentalEndpoint: Ki

See these solved cases before continuing.
CCOc1ccccc1[C@]1(NC(=O)N2CC3(C2)CN(C2CCN(C)CC2)C3)C(=O)N(S(=O)(=O)c2ccc(OC)cc2OC)c2ccc(C#N)cc21 [Example 39B]
10 to 100 nM
CCOc1ncccc1[C@]1(NC(=O)N2CC3(C2)CN(C2CCN(C)CC2)C3)C(=O)N(S(=O)(=O)c2ccccc2OC)c2ccc(C#N)cc21 [Example 32]
10 to 100 nM
CCOc1ncccc1[C@]1(NC(=O)N2CC3(CN(CCN4CCOCC4)C3)C2)C(=O)N(S(=O)(=O)c2ccc(OC)cc2)c2ccc(C#N)cc21 [Example 1]
1 to 10 nM
CCOc1ccccc1[C@]1(NC(=O)N2CC3(C2)CN(C2CCN(C4COC4)CC2)C3)C(=O)N(S(=O)(=O)c2ccc(OC)cc2)c2ccc(C#N)cc21.O=C(O)C(F)(F)F [Example 35B]
10 to 100 nM
CCOc1ncccc1[C@]1(NC(=O)N2CC3(C2)CN(C2CCN(C(C)C)CC2)C3)C(=O)N(S(=O)(=O)c2ccc(OC)cc2)c2ccc(C#N)cc21 [Example 29]
1 to 10 nM

**Query** Using the record for CCOc1ncccc1[C@]1(NC(=O)N2CC3(CN(CCCN4CCOCC4)C3)C2)C(=O)N(S(=O)(=O)c2ccc(OC)cc2)c2ccc(C#N)cc21 [Example 2] , report its Ki.
**Result** 10 to 100 nM

**Query** Using the record for CCOc1ccccc1[C@]1(NC(=O)N2CC3(C2)CN(C2CCN(C(C)C)CC2)C3)C(=O)N(S(=O)(=O)c2ccc(OC)cc2)c2ccc(C#N)cc21 [Example 40] , report its Ki.
**Result** 1 to 10 nM

**Query** Using the record for COc1ccc(S(=O)(=O)N2C(=O)[C@@](NC(=O)N3CC4(CN(CCN5CCOCC5)C4)C3)(c3cccnc3OC)c3cc(C#N)ccc32)cc1.O=C(O)C(F)(F)F [Example 12] , report its Ki.
**Result** 1 to 10 nM

**Query** Using the record for CCOc1ncccc1C1(NC(=O)C2CC3(C2)CC(N2CCN(CC)CC2)C3)C(=O)N(S(=O)(=O)c2ccc(OC)cc2OC)c2ccc(C#N)cc21 (centres unmarked) [Example 54, 2,2,2-trifluoroacetate] , report its Ki.
**Result** < 1 nM

**Query** Using the record for CCOc1ncccc1[C@]1(NC(=O)N2CC3(C2)CN(C2COC2)C3)C(=O)N(S(=O)(=O)c2ccc(F)cc2)c2ccc(C#N)cc21 [Example 31] , report its Ki.
**Result** 10 to 100 nM

**Query** Using the record for CCOc1ncccc1C1(NC(=O)C2CC3(C2)CC(N2CC4(CNC4)C2)C3)C(=O)N(S(=O)(=O)c2ccc(OC)cc2OC)c2ccc(C#N)cc21 (centres unmarked) [Example 48, 2,2,2-trifluoroacetate] , report its Ki.
**Result** 1 to 10 nM

**Query** Using the record for CCOc1ncccc1C1(NC(=O)N2CCC3(CC2)CN(C2CCNCC2)C3)C(=O)N(S(=O)(=O)c2ccc(OC)cc2OC)c2ccc(C#N)cc21 (centres unmarked) [Example 50] , report its Ki.
**Result** 10 to 100 nM

**Query** Using the record for CCOc1ncccc1[C@]1(NC(=O)N2CC3(C2)CN(C2CCN(C(C)C)CC2)C3)C(=O)N(S(=O)(=O)c2ccc(C#N)cc2)c2ccc(C#N)cc21 [Example 24] , report its Ki.
**Result** 10 to 100 nM

**Query** Using the record for CCOc1ncccc1[C@]1(NC(=O)N2CC3(CN(CCN4CCOCC4)C3)C2)C(=O)N(S(=O)(=O)c2ccccc2OC)c2ccc(C#N)cc21.O=C(O)C(F)(F)F [Example 11] , report its Ki.
**Result** 1 to 10 nM

**Query** Using the record for CCOc1ncccc1[C@]1(NC(=O)N2CC3(CN(CCN4CCOCC4)C3)C2)C(=O)N(S(=O)(=O)c2ccc(OC)cc2OC)c2ccc(C#N)cc21 [Example 7] , report its Ki.
**Result** 1 to 10 nM

**Query** Using the record for CCOc1ncccc1[C@]1(NC(=O)C2CC3(C2)CN(C2CN(C)C2)C3)C(=O)N(S(=O)(=O)c2ccc(OC)cc2)c2ccc(C#N)cc21 [Example 46] , report its Ki.
**Result** 1 to 10 nM

**Query** Using the record for CCOc1ncccc1[C@]1(NC(=O)N2CC3(CN(CCN4CCOCC4)C3)C2)C(=O)N(S(=O)(=O)c2ccc(OC)cn2)c2ccc(C#N)cc21 [Example 4] , report its Ki.
**Result** 1 to 10 nM
